# test protocol: Solubility of the compound in water
# Assay type: physicochemical
measured parameter: solubility
Note: state the figure and append the unit.

IN: May I ask what solubility has been recorded for "CC[C@H](C)[C@@H]1C(=O)N[C@H](C2Cc3ccccc3C2)C(=O)N1[C@@H](C(=O)N1CCOCC1)c1ccc(C)nc1C" ?
OUT: 33 mg/mL

----------
Recorded clearance values for a group of compounds are listed next.
# test protocol: Clearance in dog at 0.6 mg/kg
# Type: ADME, organism-based, Canis lupus familiaris
# Set-up: dose 0.6 mg/kg
# condition details: in vivo
Report the value in mL/min/kg with no unit label.

IN: May I ask what clearance has been recorded for "CCC(CC)[C@@H]1C(=O)N[C@H](C2Cc3ccccc3C2)C(=O)N1[C@@H](C(=O)N(C)C)c1ccc(C)nc1" ?
OUT: 19
